All figures here come from the supplement of paper PMC8728848.

This listing pairs binders with measured glycan array binding signal (z-score).
biological target: Gal(a1-3)Gal(b1-3)GlcNAc(b1-6)GalNAc; assay: glycan array binding signal (z-score within array); higher = stronger binding; conditions: glycan notation: IUPAC condensed, linker removed
The full list was thinned out, with the strongest signals kept by preference.

binder	glycan array binding signal (z-score)
his-Lectin-24A (Drosophila melanogaster) (protein) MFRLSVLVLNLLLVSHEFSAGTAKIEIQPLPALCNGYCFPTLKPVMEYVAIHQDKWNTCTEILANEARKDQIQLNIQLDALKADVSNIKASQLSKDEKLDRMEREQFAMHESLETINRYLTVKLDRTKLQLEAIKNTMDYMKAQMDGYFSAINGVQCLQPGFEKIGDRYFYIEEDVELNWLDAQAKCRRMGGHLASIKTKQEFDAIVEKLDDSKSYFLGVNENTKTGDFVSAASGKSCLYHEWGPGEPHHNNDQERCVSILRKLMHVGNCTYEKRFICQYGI	-0.445
Calsepa (Calystegia sepium), P93114 (protein) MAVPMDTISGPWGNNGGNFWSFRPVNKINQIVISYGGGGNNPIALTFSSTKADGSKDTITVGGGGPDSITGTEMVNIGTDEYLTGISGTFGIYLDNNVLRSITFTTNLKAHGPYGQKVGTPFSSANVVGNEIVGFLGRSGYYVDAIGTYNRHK	-0.269
RobpsCRA (Robinia pseudoacacia) (protein) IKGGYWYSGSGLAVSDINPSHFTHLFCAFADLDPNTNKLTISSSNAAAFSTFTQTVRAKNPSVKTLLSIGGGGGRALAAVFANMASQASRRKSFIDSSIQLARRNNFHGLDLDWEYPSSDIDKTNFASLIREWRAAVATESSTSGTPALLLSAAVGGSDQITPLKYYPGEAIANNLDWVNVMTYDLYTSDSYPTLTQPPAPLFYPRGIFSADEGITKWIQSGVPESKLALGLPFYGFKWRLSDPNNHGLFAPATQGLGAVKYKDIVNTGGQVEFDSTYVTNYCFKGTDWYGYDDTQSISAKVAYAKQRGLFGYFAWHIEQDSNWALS	-0.356
CPA (Cicer arietinum) (protein) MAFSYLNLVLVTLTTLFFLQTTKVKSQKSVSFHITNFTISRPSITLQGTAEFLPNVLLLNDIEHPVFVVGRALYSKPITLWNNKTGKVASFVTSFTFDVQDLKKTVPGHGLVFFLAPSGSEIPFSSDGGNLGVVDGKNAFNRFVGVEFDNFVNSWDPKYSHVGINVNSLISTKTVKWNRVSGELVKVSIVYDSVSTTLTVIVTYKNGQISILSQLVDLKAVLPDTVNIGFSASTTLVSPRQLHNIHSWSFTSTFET	-0.42

Let's switch to this binder now.
Query: # input binder: Clec12b (Mus musculus), Q149M0 (protein) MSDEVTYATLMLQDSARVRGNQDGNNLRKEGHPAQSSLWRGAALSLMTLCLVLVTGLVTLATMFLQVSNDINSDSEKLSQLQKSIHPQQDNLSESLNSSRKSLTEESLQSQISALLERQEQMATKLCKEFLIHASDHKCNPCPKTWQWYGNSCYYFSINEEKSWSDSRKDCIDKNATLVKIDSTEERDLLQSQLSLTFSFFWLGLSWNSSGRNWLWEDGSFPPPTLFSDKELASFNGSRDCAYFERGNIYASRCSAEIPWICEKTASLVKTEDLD ; wanted: its glycan array binding signal (z-score)
Response: -0.324
